- TARGET_SYSTEM: c-Src (Homo sapiens, UniProt P12931)
- Sequence (P12931 whole entry): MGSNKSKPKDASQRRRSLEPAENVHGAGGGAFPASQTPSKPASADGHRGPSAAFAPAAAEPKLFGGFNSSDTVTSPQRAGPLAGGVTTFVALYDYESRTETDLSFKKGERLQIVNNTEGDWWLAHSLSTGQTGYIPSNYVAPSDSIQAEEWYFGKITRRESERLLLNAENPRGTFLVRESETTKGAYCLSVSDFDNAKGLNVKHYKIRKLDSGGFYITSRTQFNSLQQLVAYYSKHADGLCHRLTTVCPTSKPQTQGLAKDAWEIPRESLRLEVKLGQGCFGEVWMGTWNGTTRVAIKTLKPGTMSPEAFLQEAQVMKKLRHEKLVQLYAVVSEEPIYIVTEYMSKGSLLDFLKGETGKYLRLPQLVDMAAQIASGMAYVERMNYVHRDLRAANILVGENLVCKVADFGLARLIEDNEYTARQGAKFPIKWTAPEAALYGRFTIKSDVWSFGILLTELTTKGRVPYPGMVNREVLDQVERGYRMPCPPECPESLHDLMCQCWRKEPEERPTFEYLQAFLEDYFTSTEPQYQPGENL
- ASSAY_DETAILS: IC50 inhibitory activity against c-Src kinase
- Format: biochemical
- Description: IC50 values were calculated by measuring the inhibitory activity against LCK, c-Src, p38a/MAPK14, ABL1, DDR1 and FGR kinases of the compounds of the present invention.
pIC50: −log10 of the molar value. Square brackets hold non-standard residues; d marks the D form. Peptide text beside a SMILES is read from it. * marks the point of attachment. X1 = Cc1ccc(Nc2ncc3c(n2)N(C)C(=O)N(c2cc(C(=O)*)ccc2C)C3)cn1; Chg = N[C@H](C(=O)O)C1CCCCC1; Nva = CCC[C@H](N)C(=O)O; Ac3c = NC1(C(=O)O)CC1; Aib = CC(C)(N)C(=O)O
Attribute: pIC50
OBSERVED_PROPERTY: pIC50

INSERT INTO measurements (compound, observed_property, recorded_value) VALUES
  ('CCC[C@H](NC(=O)c1ccc(C)c(N2Cc3cnc(Nc4ccc(C)nc4)nc3N(C)C2=O)c1)C(=O)N1CCC[C@H]1C(=O)NC(C)(C)C(=O)N[C@@H](CC(C)C)C(=O)N(C)C [Example 21] (X1-[Nva]P[Aib]L-NMe2)', 'pIC50', '6.22 to 6.40'),
  ('Cc1ccc(Nc2ncc3c(n2)N(C)C(=O)N(c2cc(C(=O)N[C@@H](C(=O)N4CCC[C@@H]4C(=O)NC(C)(C)C(=O)N[C@H](CC(C)C)C(=O)N(C)C)C(C)C)ccc2C)C3)cn1 [Example 10] (X1-[dV][dP][Aib][dL]-NMe2)', 'pIC50', '< 6.22'),
  ('Cc1ccc(Nc2ncc3c(n2)N(C)C(=O)N(c2cc(C(=O)N[C@H](C(=O)N4CCC[C@H]4C(=O)NC(C)(C)C(=O)NCC(=O)N(C)C)C(C)C)ccc2C)C3)cn1 [Example 14] (X1-VP[Aib]G-NMe2)', 'pIC50', '< 6.22'),
  ('Cc1ccc(Nc2ncc3c(n2)N(C)C(=O)N(c2cc(C(=O)N[C@@H](CC(C)C)C(=O)N4CCC[C@H]4C(=O)NC(C)(C)C(=O)N[C@@H](CC(C)C)C(=O)N(C)C)ccc2C)C3)cn1 [Example 20] (X1-LP[Aib]L-NMe2)', 'pIC50', '6.70 to 9.00'),
  ('Cc1ccc(Nc2ncc3c(n2)N(C)C(=O)N(c2cc(C(=O)N[C@H](C(=O)N4CCC[C@H]4C(=O)NCC(=O)N[C@@H](CC(C)C)C(=O)N(C)C)C(C)C)ccc2C)C3)cn1 [Example 6] (X1-VPGL-NMe2)', 'pIC50', '< 6.22'),
  ('Cc1ccc(Nc2ncc3c(n2)N(C)C(=O)N(c2cc(C(=O)N[C@H](C(=O)N4CCC[C@H]4C(=O)NC(C)(C)C(=O)N[C@@H](CC(C)C)C(=O)N(C)C)C4CCCCC4)ccc2C)C3)cn1 [Example 19] (X1-[Chg]P[Aib]L-NMe2)', 'pIC50', '6.22 to 6.40'),
  ('Cc1ccc(Nc2ncc3c(n2)N(C)C(=O)N(c2cc(C(=O)N[C@H](C(=O)N4CCC[C@H]4C(=O)NC4(C(=O)N[C@@H](CC(C)C)C(=O)N(C)C)CC4)C(C)C)ccc2C)C3)cn1 [Example 4] (X1-VP[Ac3c]L-NMe2)', 'pIC50', '6.40 to 6.70'),
  ('Cc1ccc(Nc2ncc3c(n2)N(C)C(=O)N(c2cc(C(=O)N[C@@H](C)C(=O)N4CCC[C@H]4C(=O)NC(C)(C)C(=O)N[C@H](C(=O)N(C)C)C(C)C)ccc2C)C3)cn1 [Example 25] (X1-AP[Aib]V-NMe2)', 'pIC50', '< 6.22'),
  ('Cc1ccc(Nc2ncc3c(n2)N(C)C(=O)N(c2cc(C(=O)N[C@H](C(=O)N4CCC[C@H]4C(=O)NC(C)(C)C(=O)N[C@@H](CC(C)C)C(=O)N(C)C)C(C)C)ccc2C)C3)cn1 [Example 1] (X1-VP[Aib]L-NMe2)', 'pIC50', '< 6.22');

----------
- TARGET_SYSTEM: LCK (Homo sapiens)
- Sequence (P06239 whole entry): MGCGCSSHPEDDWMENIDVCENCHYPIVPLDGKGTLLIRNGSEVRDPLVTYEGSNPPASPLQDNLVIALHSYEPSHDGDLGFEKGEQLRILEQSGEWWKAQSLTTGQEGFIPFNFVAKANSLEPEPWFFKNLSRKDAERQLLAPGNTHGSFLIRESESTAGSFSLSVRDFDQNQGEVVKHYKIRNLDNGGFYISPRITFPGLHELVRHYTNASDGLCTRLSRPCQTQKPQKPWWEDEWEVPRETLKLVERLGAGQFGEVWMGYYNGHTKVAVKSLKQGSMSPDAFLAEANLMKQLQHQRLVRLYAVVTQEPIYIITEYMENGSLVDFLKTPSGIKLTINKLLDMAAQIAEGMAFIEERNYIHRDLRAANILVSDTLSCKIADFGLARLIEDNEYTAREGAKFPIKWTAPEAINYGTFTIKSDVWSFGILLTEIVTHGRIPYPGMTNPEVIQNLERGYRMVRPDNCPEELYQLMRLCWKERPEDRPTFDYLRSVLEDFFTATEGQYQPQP
- ASSAY_DETAILS: IC50 inhibitory activity against LCK kinase
- Format: biochemical
Square brackets hold non-standard residues; d marks the D form. Peptide text beside a SMILES is read from it. * marks the point of attachment. X1 = Cc1ccc(Nc2ncc3c(n2)N(C)C(=O)N(c2cc(C(=O)*)ccc2C)C3)cn1; Nva = CCC[C@H](N)C(=O)O; Ac4c = NC1(C(=O)O)CCC1; Ac3c = NC1(C(=O)O)CC1; Aib = CC(C)(N)C(=O)O
Attribute: IC50
OBSERVED_PROPERTY: IC50

INSERT INTO assay_data (compound, observed_property, recorded_value) VALUES
  ('Cc1ccc(Nc2ncc3c(n2)N(C)C(=O)N(c2cc(C(=O)NCC(=O)N4CCC[C@H]4C(=O)NC(C)(C)C(=O)N[C@@H](CC(C)C)C(=O)N(C)C)ccc2C)C3)cn1 [Example 18] (X1-GP[Aib]L-NMe2)', 'IC50', '200 to 400 nM'),
  ('Cc1ccc(Nc2ncc3c(n2)N(C)C(=O)N(c2cc(C(=O)N[C@@H](C(=O)N4CCC[C@@H]4C(=O)NC(C)(C)C(=O)N[C@H](CC(C)C)C(=O)N(C)C)C(C)C)ccc2C)C3)cn1 [Example 10] (X1-[dV][dP][Aib][dL]-NMe2)', 'IC50', '200 to 400 nM'),
  ('Cc1ccc(Nc2ncc3c(n2)N(C)C(=O)N(c2cc(C(=O)N[C@@H](CC(C)C)C(=O)N4CCC[C@H]4C(=O)NC(C)(C)C(=O)N[C@@H](CC(C)C)C(=O)N(C)C)ccc2C)C3)cn1 [Example 20] (X1-LP[Aib]L-NMe2)', 'IC50', '1 to 200 nM'),
  ('Cc1ccc(Nc2ncc3c(n2)N(C)C(=O)N(c2cc(C(=O)N[C@H](C(=O)N4CCC[C@H]4C(=O)NC4(C(=O)N[C@@H](CC(C)C)C(=O)N(C)C)CCC4)C(C)C)ccc2C)C3)cn1 [Example 12] (X1-VP[Ac4c]L-NMe2)', 'IC50', '1 to 200 nM'),
  ('Cc1ccc(Nc2ncc3c(n2)N(C)C(=O)N(c2cc(C(=O)N[C@H](C(=O)N4CCC[C@@H]4C(=O)NC(C)(C)C(=O)N[C@@H](CC(C)C)C(=O)N(C)C)C(C)C)ccc2C)C3)cn1 [Example 2] (X1-V[dP][Aib]L-NMe2)', 'IC50', '1 to 200 nM'),
  ('Cc1ccc(Nc2ncc3c(n2)N(C)C(=O)N(c2cc(C(=O)N[C@H](C(=O)N4CCC[C@H]4C(=O)NC(C)(C)C(=O)N[C@@H](CC(C)C)C(=O)N(C)C)C(C)C)ccc2C)C3)cn1 [Example 1] (X1-VP[Aib]L-NMe2)', 'IC50', '1 to 200 nM'),
  ('Cc1ccc(Nc2ncc3c(n2)N(C)C(=O)N(c2cc(C(=O)N[C@H](C(=O)N4CCC[C@H]4C(=O)NC(C)(C)C(=O)NCC(=O)N(C)C)C(C)C)ccc2C)C3)cn1 [Example 14] (X1-VP[Aib]G-NMe2)', 'IC50', '1 to 200 nM'),
  ('Cc1ccc(Nc2ncc3c(n2)N(C)C(=O)N(c2cc(C(=O)N[C@H](C(=O)N4CCC[C@@H]4C(=O)NCC(=O)N[C@@H](CC(C)C)C(=O)N(C)C)C(C)C)ccc2C)C3)cn1 [Example 5] (X1-V[dP]GL-NMe2)', 'IC50', '1 to 200 nM'),
  ('Cc1ccc(Nc2ncc3c(n2)N(C)C(=O)N(c2cc(C(=O)N[C@H](C(=O)N4CCC[C@@H]4C(=O)NC4(C(=O)N[C@@H](CC(C)C)C(=O)N(C)C)CC4)C(C)C)ccc2C)C3)cn1 [Example 3] (X1-V[dP][Ac3c]L-NMe2)', 'IC50', '1 to 200 nM'),
  ('Cc1ccc(Nc2ncc3c(n2)N(C)C(=O)N(c2cc(C(=O)N[C@H](C(=O)N4CCC[C@H]4C(=O)NCC(=O)N[C@@H](CC(C)C)C(=O)N(C)C)C(C)C)ccc2C)C3)cn1 [Example 6] (X1-VPGL-NMe2)', 'IC50', '1 to 200 nM'),
  ('CCC[C@H](NC(=O)c1ccc(C)c(N2Cc3cnc(Nc4ccc(C)nc4)nc3N(C)C2=O)c1)C(=O)N1CCC[C@H]1C(=O)NC(C)(C)C(=O)N[C@@H](CC(C)C)C(=O)N(C)C [Example 21] (X1-[Nva]P[Aib]L-NMe2)', 'IC50', '1 to 200 nM');

----------
- TARGET_SYSTEM: c-Src (Homo sapiens, UniProt P12931)
- ASSAY_DETAILS: IC50 inhibitory activity against c-Src kinase
- Type: biochemical
- SETUP_CONDITIONS: read-out: c-Src IC50
Square brackets hold non-standard residues; d marks the D form. Peptide text beside a SMILES is read from it. * marks the point of attachment. X1 = Cc1ccc(Nc2ncc3c(n2)N(C)C(=O)N(c2cc(C(=O)*)ccc2C)C3)cn1; Aib = CC(C)(N)C(=O)O
OBSERVED_PROPERTY: IC50

INSERT INTO assay_data (compound, recorded_value) VALUES
  ('Cc1ccc(Nc2ncc3c(n2)N(C)C(=O)N(c2cc(C(=O)N[C@@H](Cc4ccccc4)C(=O)N4CCC[C@@H]4C(=O)N[C@H](C(=O)N[C@H](C)c4ccccc4)C(C)C)ccc2C)C3)cn1', '400 to 600 nM'),
  ('Cc1ccc(Nc2ncc3c(n2)N(C)C(=O)N(c2cc(C(=O)N[C@@H](Cc4ccccc4)C(=O)N4CCC[C@H]4C(=O)NC(C)(C)C(=O)N[C@H](C(=O)N(C)C)C(C)C)ccc2C)C3)cn1 [Example 24] (X1-FP[Aib]V-NMe2)', '> 600 nM'),
  ('Cc1ccc(Nc2ncc3c(n2)N(C)C(=O)N(c2cc(NC(=O)c4ccc5c(c4)N(Cc4ccccc4)C(=O)[C@H](CC(C)C)N=C5c4ccccc4)ccc2C)C3)cn1', '400 to 600 nM'),
  ('C=CCN1C(=O)[C@H](CC(C)C)N=C(c2ccccc2)c2ccc(C(=O)Nc3ccc(C)c(N4Cc5cnc(Nc6ccc(C)nc6)nc5N(C)C4=O)c3)cc21', '200 to 400 nM'),
  ('Cc1ccc(Nc2ncc3c(n2)N(C)C(=O)N(c2cc(C(=O)N[C@H](C(=O)N4CCC[C@H]4C(=O)N[C@@H](Cc4ccccc4)C(=O)N[C@@H](CC(C)C)C(=O)N(C)C)C(C)C)ccc2C)C3)cn1 [Example 11] (X1-VPFL-NMe2)', '1 to 200 nM'),
  ('CC1=N[C@@H](CC(C)C)C(=O)N(Cc2ccccc2)c2cc(C(=O)Nc3ccc(C)c(N4Cc5cnc(Nc6ccc(C)nc6)nc5N(C)C4=O)c3)ccc21', '1 to 200 nM'),
  ('Cc1ccc(Nc2ncc3c(n2)N(C)C(=O)N(c2cc(NC(=O)[C@@H]4CN(C(=O)OCC(Cl)(Cl)Cl)C[C@H]4C(=O)NCc4ccc(Cl)cc4)ccc2C)C3)cn1', '1 to 200 nM'),
  ('Cc1ccc(Nc2ncc3c(n2)N(C)C(=O)N(c2cc(C(=O)N[C@H](C(=O)N4CCC[C@H]4C(=O)N[C@H](C(=O)N[C@H](C)c4ccccc4)C(C)C)C(C)C)ccc2C)C3)cn1', '> 600 nM'),
  ('Cc1ccc(Nc2ncc3c(n2)N(C)C(=O)N(c2cc(NC(=O)c4ccc5c(c4)NC(=O)[C@H](Cc4ccc(F)cc4)N=C5c4ccccc4)ccc2C)C3)cn1', '1 to 200 nM'),
  ('Cc1ccc(Nc2ncc3c(n2)N(C)C(=O)N(c2cc(NC(=O)c4ccc5c(c4)NC(=O)[C@@H](Cc4ccccc4)N=C5c4ccccc4)ccc2C)C3)cn1', '1 to 200 nM');
